- TEST_DESCRIPTION: Caco-2 monolayer cell membrane transport experiment
- TEST_CONDITIONS: human, Caco-2, Recovery rate A-B, Sample-01, Caco-2, A-B, Sample-01
ENDPOINT_NAME: recovery

Sure, the documented recovery for C[C@H]1O[C@@H](O[C@H]2[C@@H](O)C[C@H](O[C@H]3[C@@H](O)C[C@H](O[C@H]4CC[C@@]5(C)[C@H](CC[C@@H]6[C@@H]5C[C@@H](O)[C@]5(C)[C@@H](C7=CC(=O)OC7)CC[C@]65O)C4)O[C@@H]3C)O[C@@H]2C)C[C@H](O)[C@@H]1O [Digoxin, digoxin, reference compound] is < 85.2%
